# Experiment: Trial B: pharmacokinetics following single and repeated doses in healthy young male subjects
# Format: in vivo, humans
# Condition Context: male, human, in vivo, oral, 50 mg, single dose 50 mg eslicarbazepine acetate, n=6; read-out: Mean apparent t½ (%CV) (converted)
Measured Property: half-life (h)
Just the number in h, nothing appended.

Request: What does the record list as half-life for NC(=O)N1c2ccccc2C[C@H](O)c2ccccc21 [eslicarbazepine] ?
Response: 8.1

====

# Experiment: Trial B: pharmacokinetics following single and repeated doses in healthy young male subjects
# Assay type: in vivo, humans
# Condition Context: male, human, plasma, oral; single dose 20 mg eslicarbazepine acetate, n=6; read-out: Median tmax (range)
Measured Property: Tmax (min)
Just the number in min, nothing appended.

Request: What does the record list as Tmax for NC(=O)N1c2ccccc2C[C@H](O)c2ccccc21 [eslicarbazepine] ?
Response: 48

Data origin, for the record: patent EP2380575B1
